Data provenance is patent US11040981B2.

System: UniProt Q12866 | Read-out: pIC50
Sequence (Q12866 21-999): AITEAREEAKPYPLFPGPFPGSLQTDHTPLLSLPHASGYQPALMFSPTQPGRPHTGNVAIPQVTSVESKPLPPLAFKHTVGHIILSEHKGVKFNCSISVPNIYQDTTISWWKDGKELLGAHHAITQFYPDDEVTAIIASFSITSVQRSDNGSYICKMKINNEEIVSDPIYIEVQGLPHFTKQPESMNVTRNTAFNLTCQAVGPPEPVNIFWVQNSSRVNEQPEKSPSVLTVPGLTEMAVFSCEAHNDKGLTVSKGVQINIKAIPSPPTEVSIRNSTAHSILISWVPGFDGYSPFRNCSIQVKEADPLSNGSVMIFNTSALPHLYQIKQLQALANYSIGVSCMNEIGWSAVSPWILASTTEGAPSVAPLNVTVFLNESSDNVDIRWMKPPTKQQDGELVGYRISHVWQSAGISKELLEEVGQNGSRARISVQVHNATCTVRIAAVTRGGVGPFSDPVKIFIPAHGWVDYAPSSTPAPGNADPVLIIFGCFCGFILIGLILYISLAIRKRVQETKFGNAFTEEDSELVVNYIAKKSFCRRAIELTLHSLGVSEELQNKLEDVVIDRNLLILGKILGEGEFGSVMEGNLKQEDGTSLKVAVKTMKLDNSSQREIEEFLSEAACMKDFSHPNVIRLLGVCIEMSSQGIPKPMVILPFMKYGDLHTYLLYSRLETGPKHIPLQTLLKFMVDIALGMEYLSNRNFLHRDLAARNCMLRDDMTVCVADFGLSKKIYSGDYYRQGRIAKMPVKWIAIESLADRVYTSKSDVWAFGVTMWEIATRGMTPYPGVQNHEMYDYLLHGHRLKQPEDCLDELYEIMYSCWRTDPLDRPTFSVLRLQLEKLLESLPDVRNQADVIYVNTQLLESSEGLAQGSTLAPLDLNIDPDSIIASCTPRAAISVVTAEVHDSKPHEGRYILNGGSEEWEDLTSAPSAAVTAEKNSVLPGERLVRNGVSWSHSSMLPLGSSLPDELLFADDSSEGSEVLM
pIC50: −log10 of the molar value.

GIVEN_SMILES	pIC50
C[C@@H](CC(F)(F)F)Nc1ncc2c(-c3ccnc([S@](C)(=N)=O)c3)cc([C@H]3CC[C@H](O)CC3)n2n1	≥ 7.00
COC[C@H](C)Nc1ncc2c(C3=C[C@H]4CC[C@@H](C3)N4)cc([C@H]3CC[C@H](O)CC3)n2n1	≥ 7.00
C[C@@H](CC(F)(F)F)Nc1ncc2c(C3=CCNCC3)cc([C@H]3CC[C@H](O)CC3)n2n1	≥ 7.00
CNC(=NC#N)N[C@H]1CC[C@H](c2cc(-c3ccc(CN4CCOCC4)cc3)c3cnc(N[C@@H](C)COC)nn32)CC1	≥ 7.00
COC[C@H](C)Nc1ncc2c(-c3cnn(C(C)(C)c4nnc(C5CC5)o4)c3)cc([C@H]3CC[C@H](O)CC3)n2n1	≥ 7.00
C[C@@H](CC(F)(F)F)Nc1ncc2c(-c3cnn(CCS(C)(=O)=O)c3)cc([C@H]3CC[C@H](O)CC3)n2n1	≥ 7.00

Now examine the next entry.
# lookup: COC[C@H](C)Nc1ncc2c(-c3ccnc(N4CCN(C(=O)C5COC5)CC4)c3)cc([C@H]3CC[C@H](O)CC3)n2n1 on UniProt Q12866, pIC50 = ≥ 7.00
